// provenance: the supplement of paper PMC6555819

- Test system: RARg homodimer (NR concentration 270 nM)
- procedure.summary: PBM binding z-score (relative to random genomic background probes); higher = stronger binding; sequences stand for … in GC…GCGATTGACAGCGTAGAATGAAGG
# label = bin(measured PBM binding z-score), where bins are 0 = under 0.8, 1 = from 0.8 up to 2, 2 = 2 and over

sequence.text	assigned.class
CCTTACGGGTCACGAGGTTATTGCACGACGAGCG	2
GGTATTAGTTGAAAGGGCAACCGAATGATTCTCG	1
TATATTAGTTGAAGGGCAACCGACGAGTCCGTTT	1
ACTATTAGTTGAGACGAGGGGAACCGATAGGTTG	0
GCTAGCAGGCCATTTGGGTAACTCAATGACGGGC	0
ATCTCTAGGTAAGACTCATTTCAGTGAAGAACGC	0
CGTCACAGTTCAACTAAGGTAACGTAAAGCACGC	2
CCTATTAGGTGACCATAAGGGCAACCGAAGCTCG	1
GCTGCTAGGTCAGGTGGGTCAGCTAACGGGTACG	2
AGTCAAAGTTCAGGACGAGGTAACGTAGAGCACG	2
ATCTCTAGGTAAGACTCAGTTCAGTCAAGAACGC	0
ATTAGCAGGCCAAGTTTGGGTCACTCAAACAAAG	1
GGTACAGGGTCAGCTAGAGGCCAGAGTATGGAAA	2
ATATGTAGGTTATCGGGTCATTCGGTTTGCGCAT	2
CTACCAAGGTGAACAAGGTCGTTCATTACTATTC	1
CAAACTAGGTCAAAGCTCAAAGTCGAGCCAACCA	2
CGAACTAGGTCAGTACAGGACAGTGAAGGATGAT	2
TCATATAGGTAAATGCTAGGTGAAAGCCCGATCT	0
AATACAGGGTCTTCGTAGGCCAGAGTACGCACAG	0
ATCACTAGGTAAGACTCAGTTCAGTGAAGAACGC	0
AGAACGAGGGCAATGAGTTGATAGCCCGGGTGGC	1
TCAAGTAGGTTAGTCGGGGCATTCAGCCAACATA	0
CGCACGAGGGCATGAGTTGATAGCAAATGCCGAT	1
CTGCCTAGGTCAGGGCCAGTATAGGAGGAACGTT	2

----------
- Tested on: PPARg:RXRa DBDmut IVT, anti-RXR (DBD mutation: RXRa K156A/R161A, NR concentration 270 nM, RXRa partner concentration 90 nM)
- procedure.summary: PBM binding z-score (relative to random genomic background probes); higher = stronger binding; sequences stand for … in GC…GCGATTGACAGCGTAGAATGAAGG
Measured PBM binding z-score, listed per entry for reference.

sequence.text	PBM binding z-score
CCTTACGGATCACTGACAGGTTATAGCATTTGGA	0.71
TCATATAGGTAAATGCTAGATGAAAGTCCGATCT	3.61
CCTACTGGGCCAAAAAGGTCATCGATGCCGATAA	3.54
TCGAGTAGGTTACCAATTGGGCATTCAGCTTTCT	3.77
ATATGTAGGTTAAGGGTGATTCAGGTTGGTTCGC	7.67
ATCGAAAGGTCGAAGCTGAGTATACCCACCCGAA	0.112

----------
- Test system: LXRa homodimer (NR concentration 270 nM)
- procedure.summary: PBM binding z-score (relative to random genomic background probes); higher = stronger binding; sequences stand for … in GC…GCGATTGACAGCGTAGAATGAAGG
PBM binding z-score values, listed per item

sequence.text	PBM binding z-score
TCTTGAAGATCAAGCAGGTTAAGAAAGCCTGAGT	-0.36
ATCTCTAGGTAACCAAGTTCAGTGCATGCCGAAC	0.876
CAGCCTAGGTCAGTGCCAGTATAGGAGGAACGTT	-0.00279
CGAGCTAGGTCATCCAGGACAGTGAATACATTGA	0.492
ACTCTTAGTTGAGACGAGGGCAACCGATAGGTTG	-0.317
CGTCCAAGCTCAGAGAGGTCAGTGAATGCCGAGT	0.781
TCGTGTAGGTTACCAATGGGGCATTCAGCTTTCT	0.0515
AGAATTAGGTTATTAAGATCAGGGAATTGCGGTC	0.495
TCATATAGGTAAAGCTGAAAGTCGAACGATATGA	-0.286
CCTACTGGGCCAACGTCATTGATCAGTCAAAGCA	-0.262
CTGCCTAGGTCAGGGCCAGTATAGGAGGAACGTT	-0.475
CGTCCAAGGTCAGAGAGGTCAGAGAATGCCGAGT	3.4
